# method.summary: r1 relaxivity measurements (20 MHz, 0.5 T, 37° C.)
# Format: physicochemical
# run.conditions: 100 mM Tris buffer, CA:Zn = 1:1
endpoint.name: r1 With Zn^2+

Examples with their reported r1 With Zn^2+ follow.
1) O=C(O)CN1CCN(CC(=O)O)CCN(CC(=O)NCCN(Cc2ccccn2)Cc2ccccn2)CCN(CC(=O)O)CC1    5.2 ± 0.1^b s^−1 mM^−1
2) O=C(O)CN1CCN(CC(=O)O)CCN(CC(=O)NCCN(CCc2ccccn2)Cc2ccccn2)CCN(CC(=O)O)CC1    5.1 ± 0.1^b s^−1 mM^−1
3) O=C(O)CN1CCN(CCC(=O)NCCN(Cc2ccccn2)Cc2ccccn2)CCN(CC(=O)O)CCN(CC(=O)O)CC1    5.5 ± 0.1^b s^−1 mM^−1
4) O=C(O)CCN1CCN(CC(=O)O)CCN(CC(=O)NCCN(Cc2ccccn2)Cc2ccccn2)CCN(CC(=O)O)CC1    5.4 ± 0.1^b s^−1 mM^−1

Proceed to the following item.
Retrieve r1 With Zn^2+ measured for O=C(O)CN1CCN(CCC(=O)NCCN(CCc2ccccn2)Cc2ccccn2)CCN(CC(=O)O)CCN(CC(=O)O)CC1 and print it. 5.3 ± 0.1^b s^−1 mM^−1

* * *

# method.summary: 17O NMR of Gd complexes (water exchange, SBM fitting)
# Assay type: physicochemical
# run.conditions: best-fit, 17O NMR; activation energy of rotational correlation time
endpoint.name: ER (kcal/mol)

1. O=C(O)CN1CCN(CC(=O)O)CCN(CC(=O)NCCN(Cc2ccccn2)Cc2ccccn2)CCN(CC(=O)O)CC1    4.95
2. O=C(O)CN1CCN(CC(=O)O)CCN(CC(=O)NCCN(CCc2ccccn2)Cc2ccccn2)CCN(CC(=O)O)CC1    4.16
3. O=C(O)CCN1CCN(CC(=O)O)CCN(CC(=O)NCCN(Cc2ccccn2)Cc2ccccn2)CCN(CC(=O)O)CC1    4.11
4. O=C(O)CN1CCN(CCC(=O)NCCN(CCc2ccccn2)Cc2ccccn2)CCN(CC(=O)O)CCN(CC(=O)O)CC1    3.59
5. O=C(O)CN1CCN(CCC(=O)NCCN(Cc2ccccn2)Cc2ccccn2)CCN(CC(=O)O)CCN(CC(=O)O)CC1    4.09

* * *

# method.summary: r1 relaxivity measurements (20 MHz, 0.5 T, 37° C.)
# Assay type: physicochemical
# run.conditions: 100 mM Tris buffer, 0.6 mM HSA, no Zn^2+
endpoint.name: r1 0.6 mM HSA alone (s⁻¹ mM⁻¹)

1) O=C(O)CN1CCN(CCC(=O)NCCN(Cc2ccccn2)Cc2ccccn2)CCN(CC(=O)O)CCN(CC(=O)O)CC1    6.5
2) O=C(O)CN1CCN(CC(=O)O)CCN(CC(=O)NCCN(CCc2ccccn2)Cc2ccccn2)CCN(CC(=O)O)CC1    5.6
3) O=C(O)CN1CCN(CCC(=O)NCCN(CCc2ccccn2)Cc2ccccn2)CCN(CC(=O)O)CCN(CC(=O)O)CC1    6.3
4) O=C(O)CCN1CCN(CC(=O)O)CCN(CC(=O)NCCN(Cc2ccccn2)Cc2ccccn2)CCN(CC(=O)O)CC1    6.9
5) O=C(O)CN1CCN(CC(=O)O)CCN(CC(=O)NCCN(Cc2ccccn2)Cc2ccccn2)CCN(CC(=O)O)CC1    5.8

* * *

# method.summary: Kinetic inertness (transmetalation by Zn(II) in phosphate buffer)
# Type: physicochemical
# run.conditions: four equivalents of Zn^2+ in phosphate buffer (pH=7), 310 K
endpoint.name: kinetic stability against transmetalation

1) O=C(O)CN1CCN(CCC(=O)NCCN(Cc2ccccn2)Cc2ccccn2)CCN(CC(=O)O)CCN(CC(=O)O)CC1 [GdL2]    kinetically inert
2) O=C(O)CN1CCN(CC(=O)O)CCN(CC(=O)NCCN(Cc2ccccn2)Cc2ccccn2)CCN(CC(=O)O)CC1 [GdL1]    kinetically inert
3) O=C(O)CN1CCN(CC(=O)O)CCN(CC(=O)NCCN(CCc2ccccn2)Cc2ccccn2)CCN(CC(=O)O)CC1 [GdL4]    kinetically inert
